Molecular target: T1, KGF (hKGF) (Homo sapiens, UniProt P21781 P21781:32-194)
T1 sequence: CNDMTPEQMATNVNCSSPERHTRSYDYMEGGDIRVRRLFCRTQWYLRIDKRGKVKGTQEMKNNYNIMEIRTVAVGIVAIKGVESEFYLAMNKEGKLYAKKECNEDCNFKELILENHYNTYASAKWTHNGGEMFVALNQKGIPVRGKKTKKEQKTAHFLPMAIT
Assay: filter; DPBS, 37 C
Details: tags: Upstate Biotechnology; label: 32P
pKd: −log10 of the molar value.
Each item that follows carries a reported pKd.
ENDPOINT_NAME: pKd

• 34N (ssRNA, 2'-NH2 pyrimidines) RNA: GGGAGGACGAUGCGGGCGGGAAGAGCUAAUGGAAGUGGAAUCAGUCACAGUGCGGCAGACGACUCGCCCGA = 9.10
• 3F (ssRNA, 2'-F pyrimidines) RNA: GGGAGGACGAUGCGGAUCGUAAUCGCCACUACUACUUUCCGAACCCGCACGUGGCCAGACGACUCGCCCGA = 8.35
• 58F (ssRNA, 2'-F pyrimidines) RNA: GGGAGGACGAUGCGGGAACUAAUGGCCGUGAUUAACCAAUGCAGGCUUCCUGCGCCAGACGACUCGCCCGA = 8.60
• 29N (ssRNA, 2'-NH2 pyrimidines) RNA: GGGAGGACGAUGCGGGAGGGGAGAAGAAUGCAGGAAACAGCGAAAUGCGUGUGGCCAGACGACUCGCCCGA = 9.37
• 35F (ssRNA, 2'-F pyrimidines) RNA: GGGAGGACGAUGCGGCGAAAUUAGCUUCUUAUGACUCACGUUUCCUUGCCGCCCCAGACGACUCGCCCGA = 8.96
